system: Vero E6 cells; details: African green monkey, 24 h
propertyLabel: CC50 (µM)
Use µM as the unit, but write only the number.

**Query** Recorded CC50 for CO/N=C1\C[C@]2(C[C@@H]3C[C@@H](C/C=C(\C)C[C@@H](C)/C=C/C=C4\CO[C@@H]5[C@H](O)C(C)=C[C@@H](C(=O)O3)[C@]45O)O2)O[C@H](/C(C)=C/C(C)C)[C@H]1C [Moxidectin 7, Moxidectin] , please?
**Result** 6.9

* * *

tested on: SARS-CoV-2; assay: Quantification of SARS-CoV-2 via antibody staining (viral NP protein) in Vero E6 cells; assay type: cell-based; details: African green monkey; Vero E6, CC50 vs IC50; read-out: selectivity index (antiviral effect vs cytotoxicity)
propertyLabel: selectivity ratio

**Query** Report selectivity ratio for CC[C@@H](C(=O)[C@@H](C)[C@@H](O)[C@H](C)[C@@H]1O[C@@H]([C@@H](CC)C(=O)O)CC[C@@H]1C)[C@H]1O[C@]2(C=C[C@@H](O)[C@]3(CC[C@@](C)([C@H]4CC[C@](O)(CC)[C@H](C)O4)O3)O2)[C@H](C)C[C@@H]1C [Salinomycin 13, Salinomycin] please.
**Result** > 100
